target.system: CaRvs167-3
experimental.protocol: SPOT peptide array binding signal intensity (averaged, normalized) (arbitrary units (background-subtracted, floor 0; scale differs between SH3 domains)); higher = stronger binding of the SH3 domain to the peptide
value.type: SPOT peptide array binding signal intensity
Please state the value as a number alone, without comment.

// below: answered binders
1. RLSFFFPLDPAYIRN: 238
2. SRYRRPLTLLLLKPF: 141
3. TTAPALPSLPPPPLL: 1
4. IKKRNKIRLPSGSPE: 67.2
5. SSSSSPPPLPTRRDH: 7.25

Requested field: SPOT peptide array binding signal intensity. Item: TYNRTAFQIPGDQSI
0.5

Requested field: SPOT peptide array binding signal intensity. Item: KKAPPPVVKPKPRNF
8

Requested field: SPOT peptide array binding signal intensity. Item: QPPLPSSAPPIPTSH
0.5

Provenance of the data: the supplement of paper PMC4466140
